Source of measurements: ChEMBL document CHEMBL1269002

Listing of recorded IC50 by entry.
- assay-name: Inhibition of Mycobacterium tuberculosis 2-hydroxy-3-oxoadipate synthase-catalyzed reduction of ferricyanide
Numeric answer only, unit µM assumed.

{"columns": ["compound", "unit-abbrev", "recorded-value"],
 "data": [
  ["Cc1ncc(Cc2csc(CCOP(=O)(O)OP(=O)(O)O)c2C)c(N)n1", "µM", 6.7]
]}

// field: IC50; key: Cc1ncc(Cc2csc(CCO)c2C)c(N)n1 [3-DEAZATHIAMINE] ; value = 144

----------
- assay-name: Competitive inhibition of Mycobacterium tuberculosis 2-hydroxy-3-oxoadipate synthase-catalyzed reduction of ferricyanide
value-kind: pKi
Lab note: report pKi as minus log10 of the concentration in molar units, number only.

{"columns": ["structure-as-smiles", "pKi"],
 "data": [
  ["Cc1ncc(Cc2csc(CCOP(=O)(O)OP(=O)(O)O)c2C)c(N)n1", 5.46]
]}

In plain terms, Cc1ncc(Cc2csc(CCO)c2C)c(N)n1 has a documented pKi of 4.12
